EXPERIMENT NOTES: chemical genetic growth profiling, strain panel (AID 1159580);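 also: tested at 20 µM; growth read once vehicle control cultures reached saturation at 30 °C; 1 = growth at the plate median or of vehicle wells; lower values mean less growth of the strain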
COND: S. cerevisiae deletion strains, growth OD, locus YLR330W, strain CHS5, stronger effect = lower value
About 2,000 (36%) of roughly 5,500 compounds were called active. Roughly 18% stayed inconclusive and do not appear here. Some of the results follow.

{"MOLECULE": "CC1CCCC(C)N1NC(=O)c1ccc(Cl)c(S(N)(=O)=O)c1 (stereo not given)", "normalized growth": 0.989}
{"MOLECULE": "O=C(Oc1ccccc1C(=O)O)c1ccccc1O", "normalized growth": 0.988}
{"MOLECULE": "CC(=O)Oc1ccccc1C(=O)Oc1ccccc1C(=O)O", "normalized growth": 0.992}
{"MOLECULE": "Nc1nc(/C(=C/CC(=O)O)C(=O)N[C@@H]2C(=O)N3C(C(=O)O)=CCS[C@H]23)cs1", "normalized growth": 0.99}
{"MOLECULE": "C[C@H]1[C@H](C)CC[C@]2(C(=O)O)CC[C@]3(C)C(=CCC4[C@@]5(C)C[C@@H](O)[C@H](O)[C@@](C)(CO)C5[C@H](O)C[C@]43C)[C@H]12 (stereo not given in full)", "normalized growth": 0.958}
